Data provenance is paper PMC11207111.

assay: Cyclic voltammetry (reduction of the nitro group); assay type: physicochemical; design: unit not given here; details: cyclic voltammetry at 2.0 V/s

[
  {
    "compound": "Cc1noc(/C=C/c2ccccc2)c1[N+](=O)[O-] [Compound 4, (E)-3-Methyl-4-nitro-5-styrylisoxazole]",
    "|ΔEp|": 90
  },
  {
    "compound": "Cc1noc(/C=C/N2CCCCC2)c1[N+](=O)[O-] [Compound 3]",
    "|ΔEp|": 100
  },
  {
    "compound": "Cc1noc(/C=C/c2cn(-c3ccc(Cl)cc3)c3ccccc23)c1[N+](=O)[O-] [Compound 13]",
    "|ΔEp|": 90
  },
  {
    "compound": "COc1cc(/C=C/c2onc(C)c2[N+](=O)[O-])ccc1O [Compound 9]",
    "|ΔEp|": 160
  },
  {
    "compound": "Cc1noc(/C=C/c2ccccc2Br)c1[N+](=O)[O-] [Compound 15]",
    "|ΔEp|": 100
  },
  {
    "compound": "Cc1noc(/C=C/c2cn(-c3ccccc3)c3ccccc23)c1[N+](=O)[O-] [Compound 12]",
    "|ΔEp|": 90
  },
  {
    "compound": "Cc1noc(/C=C/c2ccc([N+](=O)[O-])cc2)c1[N+](=O)[O-] [Compound 7]",
    "|ΔEp|": 70
  },
  {
    "compound": "Cc1noc(/C=C/N2CCCC2)c1[N+](=O)[O-] [Compound 2]",
    "|ΔEp|": 120
  },
  {
    "compound": "Cc1noc(/C=C/c2ccc(F)cc2)c1[N+](=O)[O-] [Compound 5]",
    "|ΔEp|": 110
  }
]

----------
System: trypomastigote of T. cruzi Dm28
Experiment: Trypanocidal activity (MTT) on trypomastigotes
Type: cell-based
Details: Trypanosoma cruzi, T. cruzi Dm28, 24 h
Description: As a preliminary step, a study of nitroisoxazole derivatives on the epimastigote form of T. cruzi was performed. […] It has also been determined that the presence of an isoxazole is essential for activity, as its aromatic structure contains a weak nitrogen-oxygen bond that, under different reaction conditions, can undergo ring cleavage, increasing activity. […] The effects of the compounds on trypomastigote and Vero cell viability were evaluated by tetrazolium salt reduction assay (MTT). […]

[
  {
    "molecule": "COc1cc(/C=C/c2onc(C)c2[N+](=O)[O-])ccc1O",
    "IC50": "400 µM"
  },
  {
    "molecule": "CC1CS(=O)(=O)CCN1/N=C/c1ccc([N+](=O)[O-])o1 (stereo not shown) [Nfx, nifurtimox, reference compound]",
    "IC50": "10 µM"
  },
  {
    "molecule": "Cc1noc(/C=C/c2ccc(F)cc2)c1[N+](=O)[O-]",
    "IC50": "> 400 µM"
  },
  {
    "molecule": "Cc1noc(/C=C/c2cccc(Br)c2)c1[N+](=O)[O-]",
    "IC50": "> 400 µM"
  },
  {
    "molecule": "Cc1noc(/C=C/c2ccc(Br)cc2)c1[N+](=O)[O-]",
    "IC50": "> 400 µM"
  },
  {
    "molecule": "Cc1noc(/C=C/c2cn(-c3ccc(Cl)cc3)c3ccccc23)c1[N+](=O)[O-]",
    "IC50": "> 400 µM"
  },
  {
    "molecule": "Cc1noc(/C=C/c2cn(-c3ccccc3)c3ccccc23)c1[N+](=O)[O-]",
    "IC50": "> 400 µM"
  },
  {
    "molecule": "Cc1noc(/C=C/N2CCCCC2)c1[N+](=O)[O-]",
    "IC50": "> 400 µM"
  },
  {
    "molecule": "CCN(CC)c1ccc2cc(/C=C/c3onc(C)c3[N+](=O)[O-])c(=O)oc2c1",
    "IC50": "400 µM"
  },
  {
    "molecule": "Cc1noc(/C=C/c2ccc(O)c(O)c2)c1[N+](=O)[O-]",
    "IC50": "> 400 µM"
  }
]

----------
assay: Cyclic voltammetry (reduction of the nitro group); format: physicochemical; parameters: key: potentials in V vs Ag/AgCl; conditions: cyclic voltammetry at 2.0 V/s, DMSO, 0.1 M TBAP, vs Ag/AgCl
reported metric: −EpcII

[
  {
    "sample smiles": "Cc1noc(/C=C/N2CCCCC2)c1[N+](=O)[O-]",
    "reported metric": "−EpcII",
    "reported result": 1.29
  },
  {
    "sample smiles": "Cc1noc(/C=C/c2cn(-c3ccccc3)c3ccccc23)c1[N+](=O)[O-]",
    "reported metric": "−EpcII",
    "reported result": 0.96
  },
  {
    "sample smiles": "Cc1noc(/C=C/c2cccc(Br)c2)c1[N+](=O)[O-]",
    "reported metric": "−EpcII",
    "reported result": 1.41
  },
  {
    "sample smiles": "Cc1noc(/C=C/N2CCCC2)c1[N+](=O)[O-]",
    "reported metric": "−EpcII",
    "reported result": 1.32
  },
  {
    "sample smiles": "COc1cc(/C=C/c2onc(C)c2[N+](=O)[O-])ccc1O",
    "reported metric": "−EpcII",
    "reported result": 0.91
  },
  {
    "sample smiles": "Cc1noc(/C=C/c2ccc(O)c(O)c2)c1[N+](=O)[O-]",
    "reported metric": "−EpcII",
    "reported result": 1.17
  },
  {
    "sample smiles": "Cc1noc(/C=C/c2ccc(Br)cc2)c1[N+](=O)[O-]",
    "reported metric": "−EpcII",
    "reported result": 1.53
  },
  {
    "sample smiles": "CCN(CC)c1ccc2cc(/C=C/c3onc(C)c3[N+](=O)[O-])c(=O)oc2c1",
    "reported metric": "−EpcII",
    "reported result": 1.21
  }
]

----------
As shown below, each of these compounds has a reported melting point value.
reported metric: melting point

[
  {
    "sample smiles": "Cc1noc(/C=C/c2ccc(C(F)(F)F)cc2)c1[N+](=O)[O-]",
    "reported metric": "melting point",
    "reported result": "187 to 189 °C"
  },
  {
    "sample smiles": "Cc1noc(/C=C/N2CCCCC2)c1[N+](=O)[O-]",
    "reported metric": "melting point",
    "reported result": "151 to 153 °C"
  },
  {
    "sample smiles": "Cc1noc(/C=C/c2cn(-c3ccccc3)c3ccccc23)c1[N+](=O)[O-]",
    "reported metric": "melting point",
    "reported result": "196 to 199 °C"
  },
  {
    "sample smiles": "CCN(CC)c1ccc2cc(/C=C/c3onc(C)c3[N+](=O)[O-])c(=O)oc2c1",
    "reported metric": "melting point",
    "reported result": "224 to 226 °C"
  },
  {
    "sample smiles": "Cc1noc(/C=C/c2ccc(Br)cc2)c1[N+](=O)[O-]",
    "reported metric": "melting point",
    "reported result": "195 to 198 °C"
  },
  {
    "sample smiles": "Cc1noc(/C=C/c2cccc(Br)c2)c1[N+](=O)[O-]",
    "reported metric": "melting point",
    "reported result": "174 to 177 °C"
  },
  {
    "sample smiles": "Cc1noc(/C=C/c2ccc([N+](=O)[O-])cc2)c1[N+](=O)[O-]",
    "reported metric": "melting point",
    "reported result": "225 to 227 °C"
  },
  {
    "sample smiles": "Cc1noc(/C=C/c2ccc(F)cc2)c1[N+](=O)[O-]",
    "reported metric": "melting point",
    "reported result": "169 to 171 °C"
  }
]

----------
As shown below, each of these compounds has a reported −EpcII value.
assay: Cyclic voltammetry (reduction of the nitro group); assay type: physicochemical; set-up: key: potentials in V vs Ag/AgCl; conditions: cyclic voltammetry at 2.0 V/s, DMSO, 0.1 M TBAP, vs Ag/AgCl
reported metric: −EpcII

[
  {
    "compound": "Cc1noc(/C=C/N(C)C)c1[N+](=O)[O-]",
    "reported result": 1.33
  },
  {
    "compound": "Cc1noc(/C=C/c2ccc(F)cc2)c1[N+](=O)[O-]",
    "reported result": 0.82
  },
  {
    "compound": "Cc1noc(/C=C/c2ccc([N+](=O)[O-])cc2)c1[N+](=O)[O-]",
    "reported result": 0.71
  },
  {
    "compound": "Cc1noc(/C=C/c2ccccc2Br)c1[N+](=O)[O-]",
    "reported result": 1.10
  },
  {
    "compound": "Cc1noc(/C=C/c2cn(-c3ccc(Cl)cc3)c3ccccc23)c1[N+](=O)[O-]",
    "reported result": 0.99
  },
  {
    "compound": "Cc1noc(/C=C/c2ccccc2)c1[N+](=O)[O-] [Compound 4, (E)-3-Methyl-4-nitro-5-styrylisoxazole]",
    "reported result": 0.89
  },
  {
    "compound": "Cc1noc(/C=C/c2ccco2)c1[N+](=O)[O-]",
    "reported result": 0.84
  },
  {
    "compound": "Cc1noc(/C=C/c2ccc(C(F)(F)F)cc2)c1[N+](=O)[O-]",
    "reported result": 0.74
  },
  {
    "compound": "Cc1ccc(-n2cc(/C=C/c3onc(C)c3[N+](=O)[O-])c3ccccc32)cc1",
    "reported result": 0.96
  }
]
